B1: Uncharacterized protein YpfA (Bacillus subtilis), P38491 (parent)
chain: MIEIGENVLLEYIEENELKKAKSKAVSIENNELLIAYPVDVVTGRTVILHNDMEVTVEFVGKDEVPYRFISRIKGKVKDKLQMICLEMPPREKMKRIQRRQYVRTDAVLDVQIQPGNEEEIRTLSYNISAGGIAVVLADGLSFQSGESLRLIIRLPEEEHTRQIETEAVVRRIFNDPKSEKRKMTLEYSEIAAGDQQALLQYCIRRQLNKRRKARME
partner: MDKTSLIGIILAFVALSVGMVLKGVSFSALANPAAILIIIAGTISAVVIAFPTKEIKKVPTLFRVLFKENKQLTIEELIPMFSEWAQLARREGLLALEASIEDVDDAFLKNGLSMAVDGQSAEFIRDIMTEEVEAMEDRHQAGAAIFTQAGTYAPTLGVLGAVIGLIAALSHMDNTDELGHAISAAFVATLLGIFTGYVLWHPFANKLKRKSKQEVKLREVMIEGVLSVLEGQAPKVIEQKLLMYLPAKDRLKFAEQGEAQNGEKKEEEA

Variants of: B1
Settings: with mota_bacsu motA
PROPERTY NAME: effect of a mutation on the interaction

G132A	disrupting interaction
R104D	disrupting interaction
N127A	disrupting interaction
R100F	disrupting interaction
